# condition.info: in acetonitrile, 303 K
value.type: solubility (mole fraction)

[
  {
    "smiles.string": "C[n+]1ccn(CCOCCn2cc[n+](C)c2)c1.F[P-](F)(F)(F)(F)F.F[P-](F)(F)(F)(F)F",
    "value.type": "solubility (mole fraction)",
    "endpoint.value": 0.0834
  }
]

====

# condition.info: in acetonitrile, 288 K
value.type: solubility (mole fraction)

[
  {
    "smiles.string": "C[n+]1ccn(CCOCCn2cc[n+](C)c2)c1.F[P-](F)(F)(F)(F)F.F[P-](F)(F)(F)(F)F",
    "endpoint.value": 0.0749
  }
]

====

# condition.info: in methanol, 298 K

[
  {
    "smiles.string": "C[n+]1ccn(CCOCCn2cc[n+](C)c2)c1.F[P-](F)(F)(F)(F)F.F[P-](F)(F)(F)(F)F",
    "solubility (mole fraction)": 0.000376
  }
]

====

# condition.info: in ethanol, 293 K

[
  {
    "smiles.string": "C[n+]1ccn(CCOCCn2cc[n+](C)c2)c1.F[P-](F)(F)(F)(F)F.F[P-](F)(F)(F)(F)F",
    "solubility (mole fraction)": "4.7e-05"
  }
]

====

# condition.info: in methanol, 288 K

[
  {
    "smiles.string": "C[n+]1ccn(CCOCCn2cc[n+](C)c2)c1.F[P-](F)(F)(F)(F)F.F[P-](F)(F)(F)(F)F",
    "solubility (mole fraction)": 0.000234
  }
]

====

# condition.info: in acetonitrile, 293 K
value.type: solubility (mole fraction)

[
  {
    "smiles.string": "C[n+]1ccn(CCOCCn2cc[n+](C)c2)c1.F[P-](F)(F)(F)(F)F.F[P-](F)(F)(F)(F)F",
    "value.type": "solubility (mole fraction)",
    "endpoint.value": 0.0775
  }
]

====

# condition.info: in water, 298 K
value.type: solubility (mole fraction)

[
  {
    "smiles.string": "C[n+]1ccn(CCOCCn2cc[n+](C)c2)c1.F[P-](F)(F)(F)(F)F.F[P-](F)(F)(F)(F)F",
    "endpoint.value": 0.000271
  }
]

====

# condition.info: in water, 293 K

[
  {
    "smiles.string": "C[n+]1ccn(CCOCCn2cc[n+](C)c2)c1.F[P-](F)(F)(F)(F)F.F[P-](F)(F)(F)(F)F",
    "solubility (mole fraction)": 0.00021
  }
]

====

# condition.info: in water, 288 K
value.type: solubility (mole fraction)

[
  {
    "smiles.string": "C[n+]1ccn(CCOCCn2cc[n+](C)c2)c1.F[P-](F)(F)(F)(F)F.F[P-](F)(F)(F)(F)F",
    "endpoint.value": 0.000157
  }
]

====

# condition.info: in water, 303 K
value.type: solubility (mole fraction)

[
  {
    "smiles.string": "C[n+]1ccn(CCOCCn2cc[n+](C)c2)c1.F[P-](F)(F)(F)(F)F.F[P-](F)(F)(F)(F)F",
    "endpoint.value": 0.000345
  }
]

====

# condition.info: in acetone, 303 K

[
  {
    "smiles.string": "C[n+]1ccn(CCOCCn2cc[n+](C)c2)c1.F[P-](F)(F)(F)(F)F.F[P-](F)(F)(F)(F)F",
    "solubility (mole fraction)": 0.0641
  }
]

====

# condition.info: in water, 283 K

[
  {
    "smiles.string": "C[n+]1ccn(CCOCCn2cc[n+](C)c2)c1.F[P-](F)(F)(F)(F)F.F[P-](F)(F)(F)(F)F",
    "solubility (mole fraction)": 0.000118
  }
]

====

# condition.info: in acetonitrile, 283 K
value.type: solubility (mole fraction)

[
  {
    "smiles.string": "C[n+]1ccn(CCOCCn2cc[n+](C)c2)c1.F[P-](F)(F)(F)(F)F.F[P-](F)(F)(F)(F)F",
    "endpoint.value": 0.0726
  }
]

====

# condition.info: in acetone, 288 K

[
  {
    "smiles.string": "C[n+]1ccn(CCOCCn2cc[n+](C)c2)c1.F[P-](F)(F)(F)(F)F.F[P-](F)(F)(F)(F)F",
    "solubility (mole fraction)": 0.061
  }
]

Data provenance is BigSolDB 2.1.
